Hey, just so you know, these numbers are from the NIST ThermoML archive (doi:10.1016/j.fluid.2018.04.024).

- conditions_used: 333.15 K; 35000 kPa; Liquid; Vibrating tube method
quantity_name: mass density (kg/m3)

compound | measurement_unit | mass density
CCCC(=O)OC [methyl butanoate] | kg/m3 | 887.79
CCCCCC(=O)OC [methyl hexanoate] | kg/m3 | 875.8
CCCCCCCCC(=O)OC [methyl nonanoate] | kg/m3 | 866.68
CCCCCCCC(=O)OC [methyl octanoate] | kg/m3 | 869.05
CCCCCCC(=O)OC [methyl heptanoate] | kg/m3 | 871.91
CCCCC(=O)OC [methyl pentanoate] | kg/m3 | 880.79

* * *

- conditions_used: 333.15 K; 40000 kPa; Liquid; Vibrating tube method
quantity_name: mass density (kg/m3)

compound | quantity_name | measurement_unit | readout_value
CCCCCCCC(=O)OC [methyl octanoate] | mass density | kg/m3 | 872.61
CCCCCC(=O)OC [methyl hexanoate] | mass density | kg/m3 | 879.63
CCCCCCC(=O)OC [methyl heptanoate] | mass density | kg/m3 | 875.61
CCCC(=O)OC [methyl butanoate] | mass density | kg/m3 | 892.1
CCCCCCCCC(=O)OC [methyl nonanoate] | mass density | kg/m3 | 870.12
CCCCC(=O)OC [methyl pentanoate] | mass density | kg/m3 | 884.78

* * *

- conditions_used: 343.15 K; 30000 kPa; Liquid; Vibrating tube method
quantity_name: mass density (kg/m3)

compound | mass density (kg/m3)
CCCCC(=O)OC [methyl pentanoate] | 868.17
CCCCCCCCC(=O)OC [methyl nonanoate] | 856.04
CCCCCC(=O)OC [methyl hexanoate] | 863.7
CCCCCCCC(=O)OC [methyl octanoate] | 858.07
CCCCCCC(=O)OC [methyl heptanoate] | 860.57
CCCC(=O)OC [methyl butanoate] | 873.89

* * *

- conditions_used: 293.15 K; 50000 kPa; Liquid; Vibrating tube method
quantity_name: mass density (kg/m3)

molecule | mass density, kg/m3
CCCCCCCCC(=O)OC [methyl nonanoate] | 904.41
CCCC(=O)OC [methyl butanoate] | 935.38
CCCCCCC(=O)OC [methyl heptanoate] | 912.14
CCCCCCCC(=O)OC [methyl octanoate] | 907.81
CCCCCC(=O)OC [methyl hexanoate] | 917.83
CCCCC(=O)OC [methyl pentanoate] | 925.12

* * *

- conditions_used: 363.15 K; 3000 kPa; Liquid; Vibrating tube method
quantity_name: mass density (kg/m3)

compound | mass density (kg/m3)
CCCCC(=O)OC [methyl pentanoate] | 820.7
CCCCCCC(=O)OC [methyl heptanoate] | 818.75
CCCCCCCC(=O)OC [methyl octanoate] | 818.18
CCCCCCCCC(=O)OC [methyl nonanoate] | 817.47
CCCCCC(=O)OC [methyl hexanoate] | 819.47
CCCC(=O)OC [methyl butanoate] | 821.94

* * *

- conditions_used: 323.15 K; 25000 kPa; Liquid; Vibrating tube method
quantity_name: mass density (kg/m3)

compound | measurement_unit | mass density
CCCCCCC(=O)OC [methyl heptanoate] | kg/m3 | 872.69
CCCCCCCC(=O)OC [methyl octanoate] | kg/m3 | 869.67
CCCCCCCCC(=O)OC [methyl nonanoate] | kg/m3 | 867.27
CCCCCC(=O)OC [methyl hexanoate] | kg/m3 | 876.76
CCCCC(=O)OC [methyl pentanoate] | kg/m3 | 881.64
CCCC(=O)OC [methyl butanoate] | kg/m3 | 888.92

* * *

- conditions_used: 313.15 K; 35000 kPa; Liquid; Vibrating tube method
quantity_name: mass density (kg/m3)

compound | mass density, kg/m3
CCCC(=O)OC [methyl butanoate] | 906.46
CCCCCC(=O)OC [methyl hexanoate] | 892.33
CCCCCCCCC(=O)OC [methyl nonanoate] | 881.36
CCCCCCC(=O)OC [methyl heptanoate] | 887.66
CCCCC(=O)OC [methyl pentanoate] | 898.09
CCCCCCCC(=O)OC [methyl octanoate] | 884.11

* * *

- conditions_used: 303.15 K; 15000 kPa; Liquid; Vibrating tube method
quantity_name: mass density (kg/m3)

compound | quantity_name | readout_value
CCCCCC(=O)OC [methyl hexanoate] | mass density | 886.63
CCCCCCCC(=O)OC [methyl octanoate] | mass density | 878.71
CCCC(=O)OC [methyl butanoate] | mass density | 900.35
CCCCCCC(=O)OC [methyl heptanoate] | mass density | 882.18
CCCCC(=O)OC [methyl pentanoate] | mass density | 892.37
CCCCCCCCC(=O)OC [methyl nonanoate] | mass density | 876.32

* * *

- conditions_used: 363.15 K; 15000 kPa; Liquid; Vibrating tube method
quantity_name: mass density (kg/m3)

molecule | mass density / kg/m3
CCCCCCCC(=O)OC [methyl octanoate] | 830.33
CCCCCC(=O)OC [methyl hexanoate] | 833.11
CCCCC(=O)OC [methyl pentanoate] | 835.46
CCCCCCCCC(=O)OC [methyl nonanoate] | 829.08
CCCC(=O)OC [methyl butanoate] | 838.19
CCCCCCC(=O)OC [methyl heptanoate] | 831.57

* * *

- conditions_used: 313.15 K; 1000 kPa; Liquid; Vibrating tube method
quantity_name: mass density (kg/m3)

molecule | mass density [kg/m3]
CCCCCCCCC(=O)OC [methyl nonanoate] | 857.68
CCCCCCC(=O)OC [methyl heptanoate] | 862.16
CCCCCC(=O)OC [methyl hexanoate] | 865.64
CCCC(=O)OC [methyl butanoate] | 876.3
CCCCC(=O)OC [methyl pentanoate] | 869.89
CCCCCCCC(=O)OC [methyl octanoate] | 859.59

* * *

- conditions_used: 343.15 K; 15000 kPa; Liquid; Vibrating tube method
quantity_name: mass density (kg/m3)

compound | quantity_name | measurement_unit | readout_value
CCCCCC(=O)OC [methyl hexanoate] | mass density | kg/m3 | 850.49
CCCCC(=O)OC [methyl pentanoate] | mass density | kg/m3 | 854.23
CCCCCCCCC(=O)OC [methyl nonanoate] | mass density | kg/m3 | 844.44
CCCCCCC(=O)OC [methyl heptanoate] | mass density | kg/m3 | 848.02
CCCCCCCC(=O)OC [methyl octanoate] | mass density | kg/m3 | 846.06
CCCC(=O)OC [methyl butanoate] | mass density | kg/m3 | 858.9

* * *

- conditions_used: 333.15 K; 5000 kPa; Liquid; Vibrating tube method
quantity_name: mass density (kg/m3)

molecule | mass density / kg/m3
CCCC(=O)OC [methyl butanoate] | 858.82
CCCCCC(=O)OC [methyl hexanoate] | 850.38
CCCCC(=O)OC [methyl pentanoate] | 853.79
CCCCCCCC(=O)OC [methyl octanoate] | 845.82
CCCCCCCCC(=O)OC [methyl nonanoate] | 844.26
CCCCCCC(=O)OC [methyl heptanoate] | 847.68

* * *

- conditions_used: 353.15 K; 5000 kPa; Liquid; Vibrating tube method
quantity_name: mass density (kg/m3)

compound | mass density (kg/m3)
CCCCCCCC(=O)OC [methyl octanoate] | 828.51
CCCC(=O)OC [methyl butanoate] | 836.31
CCCCC(=O)OC [methyl pentanoate] | 833.48
CCCCCC(=O)OC [methyl hexanoate] | 831.13
CCCCCCCCC(=O)OC [methyl nonanoate] | 827.54
CCCCCCC(=O)OC [methyl heptanoate] | 829.66

* * *

- conditions_used: 333.15 K; 30000 kPa; Liquid; Vibrating tube method
quantity_name: mass density (kg/m3)

compound | readout_value
CCCCC(=O)OC [methyl pentanoate] | 876.79
CCCCCCCCC(=O)OC [methyl nonanoate] | 863.32
CCCCCC(=O)OC [methyl hexanoate] | 871.99
CCCC(=O)OC [methyl butanoate] | 883.56
CCCCCCCC(=O)OC [methyl octanoate] | 865.57
CCCCCCC(=O)OC [methyl heptanoate] | 868.31

* * *

- conditions_used: 303.15 K; 50000 kPa; Liquid; Vibrating tube method
quantity_name: mass density (kg/m3)

compound | mass density (kg/m3)
CCCCCCC(=O)OC [methyl heptanoate] | 904.43
CCCCCCCC(=O)OC [methyl octanoate] | 900.27
CCCC(=O)OC [methyl butanoate] | 926.18
CCCCCCCCC(=O)OC [methyl nonanoate] | 897.21
CCCCCC(=O)OC [methyl hexanoate] | 909.79
CCCCC(=O)OC [methyl pentanoate] | 916.73

* * *

- conditions_used: 313.15 K; 15000 kPa; Liquid; Vibrating tube method
quantity_name: mass density (kg/m3)

molecule | mass density (kg/m3)
CCCCCCCC(=O)OC [methyl octanoate] | 870.52
CCCCCCCCC(=O)OC [methyl nonanoate] | 868.21
CCCCCCC(=O)OC [methyl heptanoate] | 873.55
CCCCCC(=O)OC [methyl hexanoate] | 877.59
CCCCC(=O)OC [methyl pentanoate] | 882.44
CCCC(=O)OC [methyl butanoate] | 889.92
